Tested on: IFNγ-induced NO production in RAW 264.7 cells
assayRemarks: Nitric Oxide Suppression Assay (IFNγ-induced NO, Griess nitrite readout)
Format: cell-based, mouse
conditionNotes: Mus musculus, RAW264.7, Table 3; ursolic acid derivatives; read-out: Avg NO IC50 (nM) (Mean ± SD)
observationType: IC50 (nM)

| compound | IC50 / nM |
| --- | --- |
| [2H]C([2H])([2H])C(=O)NC[C@]12CC[C@@H](C)[C@H](C)[C@H]1[C@H]1C(=O)C=C3[C@@]4(C)C=C(C#N)C(=O)C(C)(C)[C@@H]4CC[C@@]3(C)[C@]1(C)CC2 [Compound T24] | 2.87 |
| C[C@@H]1[C@H]2[C@H]3C(=O)C=C4[C@@]5(C)C=C(C#N)C(=O)C(C)(C)[C@@H]5CC[C@@]4(C)[C@]3(C)CC[C@@]2(N2CCC2=O)CC[C@H]1C [Compound T74] | 21 |
| C[C@@H]1[C@H]2[C@H]3C(=O)C=C4[C@@]5(C)C=C(C#N)C(=O)C(C)(C)[C@@H]5CC[C@@]4(C)[C@]3(C)CC[C@@]2(CN2CCC2=O)CC[C@H]1C [Compound T14] | 2.4 |
| Cc1cn(C[C@]23CC[C@@H](C)[C@H](C)[C@H]2[C@H]2C(=O)C=C4[C@@]5(C)C=C(C#N)C(=O)C(C)(C)[C@@H]5CC[C@@]4(C)[C@]2(C)CC3)nn1 [Compound T49] | 11.5 |
| C[C@@H]1[C@H]2[C@H]3C(=O)C=C4[C@@]5(C)C=C(C#N)C(=O)C(C)(C)[C@@H]5CC[C@@]4(C)[C@]3(C)CC[C@@]2(CN2CCC2)CC[C@H]1C [Compound T55] | 14.6 |

[P] C[C@@H]1[C@H]2[C@H]3C(=O)C=C4[C@@]5(C)C=C(C#N)C(=O)C(C)(C)[C@@H]5CC[C@@]4(C)[C@]3(C)CC[C@@]2(N)CC[C@H]1C [Compound T16]
[Q] CNC(=O)NC[C@]12CC[C@@H](C)[C@H](C)[C@H]1[C@H]1C(=O)C=C3[C@@]4(C)C=C(C#N)C(=O)C(C)(C)[C@@H]4CC[C@@]3(C)[C@]1(C)CC2 [Compound T26]
[R] C[C@@H]1[C@H]2[C@H]3C(=O)C=C4[C@@]5(C)C=C(C#N)C(=O)C(C)(C)[C@@H]5CC[C@@]4(C)[C@]3(C)CC[C@@]2(c2nc(CO)no2)CC[C@H]1C [Compound T10]
[S] CCC(=O)NC[C@]12CC[C@@H](C)[C@H](C)[C@H]1[C@H]1C(=O)C=C3[C@@]4(C)C=C(C#N)C(=O)C(C)(C)[C@@H]4CC[C@@]3(C)[C@]1(C)CC2 [Compound T23]
[T] C[C@@H]1[C@H]2[C@H]3C(=O)C=C4[C@@]5(C)C=C(C#N)C(=O)C(C)(C)[C@@H]5CC[C@@]4(C)[C@]3(C)CC[C@@]2(n2ccnc2)CC[C@H]1C [Compound T62]
Request: Order the entries by their reported IC50, beginning at the minimum. Hello, could you send the labels back in the order asked? Thank you.
Response: R, S, Q, P, T
(R: 2.08 nM, S: 3.07 nM, Q: 5.12 nM, P: 15 nM, T: 23.4 nM)

[I] C[C@@H]1[C@H]2[C@H]3C(=O)C=C4[C@@]5(C)C=C(C#N)C(=O)C(C)(C)[C@@H]5CC[C@@]4(C)[C@]3(C)CC[C@@]2(CN2NCCC2=O)CC[C@H]1C [Compound T54]
[II] C[C@@H]1[C@H]2[C@H]3C(=O)C=C4[C@@]5(C)C=C(C#N)C(=O)C(C)(C)[C@@H]5CC[C@@]4(C)[C@]3(C)CC[C@@]2(c2nc(C3CC3)no2)CC[C@H]1C [Compound T2]
Request: Between the two listed entries I and II , which has its IC50 at the higher number? Answer format: the label of the selected item.
Response: II
